Test system: NCI-H226 complex tumor spheroids, viability
Assay: Anticancer human tumor NCI-H226 cell line growth inhibition;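 also: spheroids exposed to compound for 7 days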
Details: curve of first compound; second compound 0.000949 µM
pIC50: −log10 of the molar value.
metric: pIC50

Need pIC50 for each of these compounds.
1. [2H]c1nc(C)nc([2H])c1-c1cc(NC[C@@H](C)c2cccc3c(C(=O)NC)ccnc23)ncn1 + COc1cc2c(cc1O)CCNC21CSC2c3c(OC(C)=O)c(C)c4c(c3C(COC1=O)N1C(O)C3Cc5cc(C)c(OC)c(O)c5C(C21)N3C)OCO4
2. COc1cc(C)[nH]c(=O)c1CN1CCc2c(Cl)cc(C(OC)C3COC3)c(Cl)c2C1=O (stereo not given) + COc1cc2c(cc1O)CCNC21CSC2c3c(OC(C)=O)c(C)c4c(c3C(COC1=O)N1C(O)C3Cc5cc(C)c(OC)c(O)c5C(C21)N3C)OCO4
3. Cc1cc(C)c(CNC(=O)c2cc(-c3ccc(CN4CCOCC4)cc3)cc3c2cnn3C2CCCC2)c(=O)[nH]1 + COc1cc2c(cc1O)CCNC21CSC2c3c(OC(C)=O)c(C)c4c(c3C(COC1=O)N1C(O)C3Cc5cc(C)c(OC)c(O)c5C(C21)N3C)OCO4
4. O=C(c1cc(Cc2n[nH]c(=O)c3ccccc23)ccc1F)N1CCN(C(=O)C2CC2)CC1 + COc1cc2c(cc1O)CCNC21CSC2c3c(OC(C)=O)c(C)c4c(c3C(COC1=O)N1C(O)C3Cc5cc(C)c(OC)c(O)c5C(C21)N3C)OCO4
5. Cn1ncnc1[C@H]1c2n[nH]c(=O)c3cc(F)cc(c23)N[C@@H]1c1ccc(F)cc1 + COc1cc2c(cc1O)CCNC21CSC2c3c(OC(C)=O)c(C)c4c(c3C(COC1=O)N1C(O)C3Cc5cc(C)c(OC)c(O)c5C(C21)N3C)OCO4

["< 5.00", "< 5.00", "< 5.00", "< 4.52", "< 5.52"]

These data points were gathered from PubChem BioAssay AID1845210.
